# reported IC50; entries follow
target: Pol II (Homo sapiens); construct: HeLaScribe® nuclear extract containing Pol II and all other transcription factors; purchased Promega; host or cells: HeLa nuclear extract (endogenous protein); test: In vitro transcription runoff assay using HeLaScribe nuclear extract; type: biochemical; settings: IC50 (nM), Table 12; n = 3; high values estimated from activity at [I]=1.0 μM
Starred links: 1 amine or outer side, 2 acyl side, 3 side chain; linkers in the order of their positions; H or OH if unused. Positions of bridges follow the written chain, without caps; N, C: chain ends. Non-standard residues stand in square brackets, D forms with d. Residues, ends and D or L forms follow the SMILES beside them. X4 = CC(C)(C)OC(=O)/N=C(\N)N[C@@H]1C[C@@H](C(=O)[*:2])N([*:1])C1; Trp(2-yl) = O=C([C@H](Cc1c([*:3])[nH]c2ccccc12)N[*:1])[*:2]; Ile(4R-OH,5-OH) = C[C@H]([C@H](N)C(=O)O)[C@@H](O)CO; Pro(4R-NH2) = N[C@H]1CN[C@H](C(=O)O)C1

[
  {
    "compound": "CC[C@H](C)[C@@H]1NC(=O)CNC(=O)[C@@H]2Cc3c([nH]c4ccccc34)SC[C@H](NC(=O)CNC1=O)C(=O)N[C@@H](CC(N)=O)C(=O)N1C[C@H](N/C(N)=N/C(=O)OC(C)(C)C)C[C@H]1C(=O)N[C@@H]([C@@H](C)[C@@H](O)CO)C(=O)N2 [Compound 9, Boc-Gdn-Pro-amanitin] (cyclo(CN[X4][Ile(4R-OH,5-OH)][Trp(2-yl)]GIG); thioether 1-5)",
    "unitsLabel": "nM",
    "comparisonSymbol": ">",
    "IC50": 600
  },
  {
    "compound": "CC[C@H](C)[C@@H]1NC(=O)CNC(=O)[C@@H]2Cc3c([nH]c4ccccc34)SC[C@H](NC(=O)CNC1=O)C(=O)N[C@@H](CC(N)=O)C(=O)N1C[C@H](N)C[C@H]1C(=O)N[C@@H]([C@@H](C)[C@@H](O)CO)C(=O)N2 [Compound 6, NH2-Pro-amanitin] (cyclo(CN[Pro(4R-NH2)][Ile(4R-OH,5-OH)][Trp(2-yl)]GIG); thioether 1-5)",
    "unitsLabel": "nM",
    "comparisonSymbol": "=",
    "IC50": 550
  }
]
